# pKi listing for each entry below
Molecular target: Plasmin (Homo sapiens)
Test: Inhibitory activity of compound against Plasmin (HP)
In textbook form, pKi equals minus log to base ten of the concentration in mol/L.

Compound | pKi
N=C(N)Nc1ccc(CC(NC(=O)[C@H](Cc2ccccc2)NC(=O)[C@@H](CCc2ccccc2)NC(=O)OC23CC4CC(CC(C4)C2)C3)C(=O)C(F)(F)F)cc1 (some centres undefined) | 7.40
CC(C)(C)[C@@H](NC(=O)OC12CC3CC(CC(C3)C1)C2)C(=O)N[C@@H](Cc1ccccc1)C(=O)NC(Cc1ccc(NC(=N)N)cc1)C(=O)C(F)(F)F (some centres undefined) | 6.92
CC(C)(C)OC(=O)N[C@H](Cc1ccccc1)C(=O)N[C@H](C(=O)NC(Cc1ccc(NC(=N)N)cc1)C(=O)C(F)(F)F)c1ccc2ccccc2c1 (some centres undefined) | 7.22

Shift focus to the following entry.
Given item CC(C)(C)[C@@H](NC(=O)N1CCOCC1)C(=O)NCC(=O)NC(Cc1ccc(NC(=N)N)cc1)C(=O)C(F)(F)F (some centres undefined) , the value recorded as its pKi is 3.96
